Test system: NCI-H292 lung cancer cells
Assay: FDA drug screening, complete media vs cholesterol-free media with simvastatin (TABLE 2)
Assay type: cell-based, human
Conditions: NCI-H292 cells, cholesterol-free media with simvastatin 0.04 μM; FDA drug library screen (TABLE 2)
Structures can show the parent of a compound that is named as a salt.
// label = t if Cholesterol-free media + simvastatin (0.04 μM) is not less than 1, otherwise f

# compound, class
data = [
    ("COc1cc(CNC(=O)CCCC/C=C/C(C)C)ccc1O [Capsaicin]", "t"),
    ("Cc1ccc(-c2ncc(Cl)cc2-c2ccc(S(C)(=O)=O)cc2)cn1 [Etoricoxib]", "t"),
    ("CCCN[C@@H]1CCc2nc(N)sc2C1 [Dexpramipexole (dihydrochloride)]", "t"),
]

Is Cholesterol-free media + simvastatin (0.04 μM) for COc1cc2nccc(Oc3ccc(NC(=O)C4(C(=O)Nc5ccc(F)cc5)CC4)cc3)c2cc1OC [Cabozantinib] at or above 1?
t

Is Cholesterol-free media + simvastatin (0.04 μM) for COC(=O)C[C@](O)(CCC(C)(C)O)C(=O)O[C@@H]1C(OC)=C[C@]23CCCN2CCc2cc4c(cc2[C@H]13)OCO4 [Harringtonine] at or above 1?
f

###

System: NCI-H292 lung cancer cells
Assay: FDA drug screening, complete media vs cholesterol-free media with simvastatin (TABLE 2)
Type: cell-based, human
Details: NCI-H292 cells, cholesterol-free media with simvastatin 0.04 μM; FDA drug library screen (TABLE 2)
Counter-ions that a name gives are not always drawn.
Categorize each record by its Cholesterol-free media + simvastatin (0.04 μM) using I (below 0.8), II (0.8 to below 1), III (1 or more)

# molecule, class
measured = [
    ("CC(C)[C@]12O[C@H]1[C@@H]1O[C@]13[C@]1(O[C@H]1C[C@H]1C4=C(CC[C@@]13C)C(=O)OC4)[C@@H]2O [Triptolide]", "I"),
    ("OCC(O)CO [Glycerol]", "III"),
    ("CCN(CC)CCOC(=O)C(Cc1cccc2ccccc12)CC1CCCO1.O=C(O)C(=O)O (centres unmarked) [Naftidrofuryl (oxalate)]", "III"),
    ("NCC1(CC(=O)O)CCCCC1 [Gabapentin (hydrochloride)]", "III"),
]

Now for a further molecule.
Which of the defined bands does the recorded Cholesterol-free media + simvastatin (0.04 μM) of CC(=O)N[C@@H](CC(C)C)C(=O)O [Acetylleucine] sit within?
II

###

System: NCI-H292 lung cancer cells
Assay: FDA drug screening, complete media vs cholesterol-free media with simvastatin (TABLE 2)
Format: cell-based, human
Conditions: NCI-H292 cells, FDA drug library screen, cholesterol-free media with simvastatin 0.04 μM
Structures can show the parent of a compound that is named as a salt.
measuredEndpoint: Cholesterol-free media + simvastatin (0.04 μM)
Response field accepts a number only; no unit should be typed.

# molecule, quantitativeReadout
measured = [
    ("C[C@]1(Cn2ccnn2)[C@H](C(=O)O)N2C(=O)C[C@H]2S1(=O)=O [Tazobactam]", 1.141),
    ("Cc1ccc(Nc2nccc(N(C)c3ccc4c(C)n(C)nc4c3)n2)cc1S(N)(=O)=O [Pazopanib (Hydrochloride)]", 0.5325),
    ("Cc1cn(-c2cc(NC(=O)c3ccc(C)c(Nc4nccc(-c5cccnc5)n4)c3)cc(C(F)(F)F)c2)cn1", 0.854),
    ("CCCCOc1ccc(CC(=O)NO)cc1 [Bufexamac]", 1.029),
    ("Cc1ncc([N+](=O)[O-])n1CCOC(=O)c1ccccc1 [Metronidazole Benzoate]", 1.104),
]

Request the reported Cholesterol-free media + simvastatin (0.04 μM) associated with C=CC(=O)Nc1cccc(Oc2nc(Nc3ccc(N4CCN(C)CC4)cc3)nc3ccsc23)c1 [Olmutinib]
0.5571

Request the reported Cholesterol-free media + simvastatin (0.04 μM) associated with CC(=O)O[C@@]12CO[C@@H]1C[C@H](O)[C@@]1(C)C(=O)[C@H](O)C3=C(C)[C@@H](OC(=O)[C@H](O)[C@@H](NC(=O)OC(C)(C)C)c4ccccc4)C[C@@](O)([C@@H](OC(=O)c4ccccc4)[C@H]21)C3(C)C [Docetaxel (Trihydrate)]
0.3708

###

Difference overview
Test system: NCI-H292 lung cancer cells
Assay: FDA drug screening, complete media vs cholesterol-free media with simvastatin (TABLE 2)
Assay type: cell-based, human
Settings: complete media vs cholesterol-free media + simvastatin (0.04 μM); […]

Here's what some known entries look like.
# molecule, Difference
data = [
    ("CN1C(=O)CCS(=O)(=O)C1c1ccc(Cl)cc1 (stereo not drawn)", "−0.34"),
    ("CCC[C@H](NC(=O)[C@@H]1[C@H]2CCC[C@H]2CN1C(=O)[C@@H](NC(=O)[C@@H](NC(=O)c1cnccn1)C1CCCCC1)C(C)(C)C)C(=O)C(=O)NC1CC1", "−0.13"),
]

Now, please, on to the next molecule.
Request the reported Difference associated with `CNc1ncc(-c2ccc3c(=O)c(C(=O)O)cn(C4CC4)c3c2C)cc1C`
−0.10

###

Tested on: NCI-H292 lung cancer cells
Assay: FDA drug screening, complete media vs cholesterol-free media without statin (TABLE 1)
Format: cell-based, human
Settings: NCI-H292 cells, FDA drug library screen, cholesterol-free media without statin
measuredEndpoint: Cholesterol-free
Response field accepts a number only; no unit should be typed.

# compound, Cholesterol-free
records = [
    ("COC(=O)N[C@H](C(=O)N1CCC[C@H]1C(=O)Nc1ccc([C@@H]2CC[C@@H](c3ccc(NC(=O)[C@@H]4CCCN4C(=O)[C@@H](NC(=O)OC)C(C)C)cc3)N2c2ccc(C(C)(C)C)cc2)cc1)C(C)C", 1.001),
]

Request the reported Cholesterol-free associated with `CC1=NN(c2ccccc2)C(=O)C1`
1.236

###

System: NCI-H292 lung cancer cells
Test: FDA drug screening, complete media vs cholesterol-free media with simvastatin (TABLE 2)
Type: cell-based, human
Conditions: complete media minus cholesterol-free media + simvastatin; >0 enhanced anti-cancer activity, about 0 neutral, <0 antagonist
Structures can show the parent of a compound that is named as a salt.
Difference overview
Response field accepts a number only; no unit should be typed.

Here's what some known entries look like.
# compound, assaySystem, Difference
rows = [
    ("O=S(=O)(c1cccc2cnccc12)N1CCCNCC1 [Fasudil (Hydrochloride)]", "NCI-H292 lung cancer cells", 0.24),
    ("C=C1CCN([C@H](C)[C@](O)(Cn2cncn2)c2ccc(F)cc2F)CC1", "NCI-H292 lung cancer cells", 0.49),
    ("COc1ccc(-n2nc(C(N)=O)c3c2C(=O)N(c2ccc(N4CCCCC4=O)cc2)CC3)cc1", "NCI-H292 lung cancer cells", 0.14),
    ("CN(C)CCCN1c2ccccc2CCc2ccc(Cl)cc21 [Clomipramine (hydrochloride)]", "NCI-H292 lung cancer cells", 0.12),
    ("C/C=C/C1=C(C(=O)O)N2C(=O)[C@@H](NC(=O)[C@H](N)c3ccc(O)cc3)[C@H]2SC1.O [Cefprozil (monohydrate)]", "NCI-H292 lung cancer cells", 0.24),
    ("CCCCC1=NC2(CCCC2)C(=O)N1Cc1ccc(-c2ccccc2-c2nnn[nH]2)cc1", "NCI-H292 lung cancer cells", 0.06),
    ("CC(C)COCC(CN(Cc1ccccc1)c1ccccc1)N1CCCC1 (stereo not drawn) [Bepridil (hydrochloride hydrate)]", "NCI-H292 lung cancer cells", 0.26),
    ("Nc1ccc(S(=O)(=O)Nc2ccccn2)cc1", "NCI-H292 lung cancer cells", 0.80),
    ("CO/N=C(\\C(=O)N[C@@H]1C(=O)N2C(C(=O)OC(C)OC(C)=O)=C(COC(N)=O)CS[C@H]12)c1ccco1 (stereo partly drawn)", "NCI-H292 lung cancer cells", 0.02),
    ("Clc1ccccc1C(c1ccccc1)(c1ccccc1)n1ccnc1", "NCI-H292 lung cancer cells", 0.44),
]

Query the reported Difference for NCI-H292 lung cancer cells; item: OCC(S)CS (stereo not drawn)
0.21

Query the reported Difference for NCI-H292 lung cancer cells; item: `N[C@@H]1[C@H]2CN(c3nc4c(cc3F)c(=O)c(C(=O)O)cn4-c3ccc(F)cc3F)C[C@@H]12`
0.02

Query the reported Difference for NCI-H292 lung cancer cells; item: COC(=O)c1ccccc1O [Methyl Salicylate]
0.07

Query the reported Difference for NCI-H292 lung cancer cells; item: `CN1CCN(c2ccc(C(=O)Nc3n[nH]c4ccc(Cc5cc(F)cc(F)c5)cc34)c(NC3CCOCC3)c2)CC1`
0.02

Query the reported Difference for NCI-H292 lung cancer cells; item: NC(=O)NS(=O)(=O)c1ccc(N)cc1 [Sulfacarbamide]
0.21

Query the reported Difference for NCI-H292 lung cancer cells; item: `O=C(Nc1cnn2ccc(N3CCC[C@@H]3c3cc(F)ccc3F)nc12)N1CC[C@H](O)C1`
0.05

Query the reported Difference for NCI-H292 lung cancer cells; item: CC(C)(C)NC(=O)[C@H]1CC[C@H]2[C@@H]3CC=C4C=C(C(=O)O)CC[C@]4(C)[C@H]3CC[C@]12C [Epristeride]
0.19

Query the reported Difference for NCI-H292 lung cancer cells; item: CC(C(=O)O)c1ccc(CC2CCCC2=O)cc1 (stereo not drawn)
0.12

Query the reported Difference for NCI-H292 lung cancer cells; item: `COc1c(O)cc2c(c1O)[C@@H]1O[C@H](CO)[C@@H](O)[C@H](O)[C@H]1OC2=O`
0.07

Query the reported Difference for NCI-H292 lung cancer cells; item: O=P(O)(O)C(O)(Cn1ccnc1)P(=O)(O)O [Zoledronic acid (monohydrate)]
0.17

Query the reported Difference for NCI-H292 lung cancer cells; item: CCN[C@H]1CN(CCCOC)S(=O)(=O)c2sc(S(N)(=O)=O)cc21 [Brinzolamide]
0.09

Query the reported Difference for NCI-H292 lung cancer cells; item: `CC(C)(N)CNC(=O)C[C@H]1CC[C@]2(CC1)OO[C@]1(O2)C2CC3CC(C2)CC1C3`
0.19

Query the reported Difference for NCI-H292 lung cancer cells; item: `CC1(C)CC[C@]2(C(=O)O)CC[C@]3(C)C(=CC[C@@H]4[C@@]5(C)CC[C@H](O)C(C)(C)[C@@H]5CC[C@]43C)[C@@H]2C1`
0.66

Query the reported Difference for NCI-H292 lung cancer cells; item: `O=C1Nc2ccc(Cl)cc2[C@@](C#CC2CC2)(C(F)(F)F)O1`
0.09

Query the reported Difference for NCI-H292 lung cancer cells; item: `Cn1c(Cn2ccc(C(F)(F)F)c(Oc3cc(Cl)cc(C#N)c3)c2=O)n[nH]c1=O`
0.14

Query the reported Difference for NCI-H292 lung cancer cells; item: CCN1CC(CCN2CCOCC2)C(c2ccccc2)(c2ccccc2)C1=O (stereo not drawn) [Doxapram (hydrochloride hydrate)]
0.23

Query the reported Difference for NCI-H292 lung cancer cells; item: O.O.O.O.O=P([O-])(O)C(Cl)(Cl)P(=O)([O-])O.[Na+].[Na+] [Clodronate (disodium tetrahydrate)]
0.09

Query the reported Difference for NCI-H292 lung cancer cells; item: `CC(C)COc1ccc(CNC(=O)N(Cc2ccc(F)cc2)C2CCN(C)CC2)cc1`
0.25

Query the reported Difference for NCI-H292 lung cancer cells; item: CN[C@H]1CC[C@@H](c2ccc(Cl)c(Cl)c2)c2ccccc21 [Sertraline (hydrochloride)]
0.29

Query the reported Difference for NCI-H292 lung cancer cells; item: CCCc1cc(C(N)=S)ccn1 [Prothionamide]
0.06
